biological target: HuCD100-His (human, UniProt Q92854 22-734); assay: cell-based or functional assay
# key: entry, value: MDSC proportion (%) at 228.498 nM antibody
Numeric only. Scale: %

Here's what some known entries look like.
binder: A9-VHH2 (antibody, human IgG4 S228P, V domains shown) VH: QVQLVESGGGLVQAGGSLRLSCAASGFSLDYYAIGWFRQAPGKEREEVSCISSSGGSTDYADSVKGRFTISRAYAKVYLQMNSLRAEDTAVYYCAAGVSGSVCPPLIGAYWGQGTLVTVSS
output.unit: %
recorded.result: 9.09

binder: A9-VHH1 (antibody, human IgG4 S228P, V domains shown) VH: QVQLVESGGGLVQPGGSLRLSCAASGFSLDYYAIGWFRQAPGKEREEVSCISSSGGSTDYADSVKGRFTISRAYAKVYLQMNSLKPEDTAVYYCAAGVSGSVCPPLIGAYWGQGTLVTVSS
output.unit: %
recorded.result: 9.06

Next binder, please.
## Task // returns reported MDSC proportion (%) at 228.498 nM antibody for input A9-VHH3 (antibody, human IgG4 S228P, V domains shown) VH: QVQLVESGGGLVQAGGSLRLSCAASGFSLDYYAIGWFRQAPGKGLEEVSCISSSGGSTDYADSVKGRFTISRAYAKVYLQMNSLRAEDTAVYYCAAGVSGSVCPPLIGAYWGQGTLVTVSS
## Result 8.85
